src = patent US10183947B2

- assayed system: FLAP (human ALOX5AP expressed in COS-7 cell membranes) (Homo sapiens (Human))
- Sequence (P20292 whole entry): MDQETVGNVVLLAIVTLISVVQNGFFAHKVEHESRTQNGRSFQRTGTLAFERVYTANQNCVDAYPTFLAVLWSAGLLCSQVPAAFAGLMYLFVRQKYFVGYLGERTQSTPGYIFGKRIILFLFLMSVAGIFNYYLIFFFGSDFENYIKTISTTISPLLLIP
IC50 strictly less than 60 nM = YES. Otherwise NO.

-- ask Given Cn1ncc(NC(=O)C2CCCCC2C(=O)c2ccc(-c3cc[nH]n3)cc2)c1C#N (single isomer, unassigned) [Example 18a] , is recorded IC50 strictly lower than 60 nM?
-- reply NO

-- ask Given CN(C)S(=O)(=O)c1c(NC(=O)[C@@H]2CCCC[C@H]2C(=O)c2ccc(-c3ccn[nH]3)cc2)cnn1C [Example 27] , is recorded IC50 strictly lower than 60 nM?
-- reply NO

-- ask Given COc1c(NC(=O)C2CCCCC2C(=O)c2ccc(-c3cc[nH]n3)cc2)cnn1C (racemic) [Example 14] , is recorded IC50 strictly lower than 60 nM?
-- reply NO

-- ask Given Cn1ncc(NC(=O)C2CCCCC2C(=O)c2ccc(-c3ccn[nH]3)cc2F)c1C(N)=O (single isomer, unassigned) [Example 34] , is recorded IC50 strictly lower than 60 nM?
-- reply YES

-- ask Given Cc1cc(-c2ccc(C(=O)C3CCCCC3C(=O)Nc3cnn(C)c3C(N)=O)c(Cl)c2)[nH]n1 (racemic) [Example 32] , is recorded IC50 strictly lower than 60 nM?
-- reply NO

-- ask Given Cc1cc(-c2ccc(C(=O)[C@@H]3CCCC[C@H]3C(=O)Nc3cnn4c3C(=O)NCC4)cc2)[nH]n1 [Example 7] , is recorded IC50 strictly lower than 60 nM?
-- reply YES

-- ask Given CCn1cc(NC(=O)C2CCCCC2C(=O)c2ccc(-c3ccn[nH]3)cc2)c(C(N)=O)n1 (racemic) [Example 42] , is recorded IC50 strictly lower than 60 nM?
-- reply NO

-- ask Given Cc1cc(NC(=O)C2CCCCC2C(=O)c2ccc(-c3ccn[nH]3)cc2)sn1 (racemic) [Example 48] , is recorded IC50 strictly lower than 60 nM?
-- reply YES

-- ask Given Cc1cc(-c2ccc(C(=O)C3CCCCC3C(=O)Nc3cnn(C)c3C(N)=O)c(F)c2)[nH]n1 (single isomer, unassigned) [Example 37] , is recorded IC50 strictly lower than 60 nM?
-- reply YES

-- ask Given Cc1coc(NC(=O)C2CCCCC2C(=O)c2ccc(-c3ccn[nH]3)cc2)n1 (racemic) [Example 45] , is recorded IC50 strictly lower than 60 nM?
-- reply NO

-- ask Given CN1CCn2ncc(NC(=O)[C@@H]3CCCC[C@H]3C(=O)c3ccc(-c4cc[nH]n4)cc3)c2C1=O [Example 17] , is recorded IC50 strictly lower than 60 nM?
-- reply YES

-- ask Given Cn1cc(NC(=O)C2CCCCC2C(=O)c2ccc(-c3cc[nH]n3)cc2)c(C#N)n1 (single isomer, unassigned) [Example 12] , is recorded IC50 strictly lower than 60 nM?
-- reply YES
